System: 292921-168-R-J2-PDC KRAS tumor spheroid viability;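 also: drug exposure lasted seven days after spheroids formed for three days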
Test summary: Anticancer human tumor 292921-168-R-J2-PDC patient-derived pancreatic carcinoma cell line growth inhibition [KRAS2]; active = viability on the fitted dose curve at most 10% of control; inactive = the rest
Cond: second compound 3.16 µM; first compound 10 µM; spheroids with HUVEC and MSC
Classes used: YES = active, NO = inactive

>  <Molecule>
COC(=O)c1ccc2c(C(=Nc3ccc(N(C)C(=O)CN4CCN(C)CC4)cc3)c3ccccc3)c(O)[nH]c2c1 + CC1OCC2(CCN(c3cnc(Sc4ccnc(N)c4Cl)c(N)n3)CC2)C1N

>  <Class name>
YES

$$$$
>  <Molecule>
O=C(c1cc(Cc2n[nH]c(=O)c3ccccc23)ccc1F)N1CCN(C(=O)C2CC2)CC1 + COc1cc2nc(C)nc(NC(C)c3cc(N)cc(C(F)(F)F)c3)c2cc1OC1CCOC1

>  <Class name>
NO

$$$$
>  <Molecule>
COc1cc(Nc2ncc3c(n2)-c2ccc(Cl)cc2C(c2c(F)cccc2OC)=NC3)ccc1C(=O)O + C=CC(=O)N1CCN(c2nc(=O)n(-c3c(C)ccnc3C(C)C)c3nc(-c4c(O)cccc4F)c(F)cc23)C(C)C1

>  <Class name>
NO

$$$$
>  <Molecule>
Cn1nccc1Nc1nccc(-c2cc3c(s2)C(C)(C)N(CCN2CCOCC2)C3=O)n1 + C=CC(=O)N1CCN(c2nc(OCC3CCCN3C)nc3c2CCN(c2cccc4cccc(C)c24)C3)CC1CC#N

>  <Class name>
YES

$$$$
>  <Molecule>
COc1cc(Nc2ncc3c(n2)-c2ccc(Cl)cc2C(c2c(F)cccc2OC)=NC3)ccc1C(=O)O + CC1OCC2(CCN(c3cnc(Sc4ccnc(N)c4Cl)c(N)n3)CC2)C1N

>  <Class name>
NO

$$$$
